- System: RXF 393
- assay-text: NCI tumour cell line growth inhibition, 48 h
Active and inactive are the calls of the source. No stated cut-off is given here; in the data, active = GI50 up to about 1.1 µM and inactive = higher.
Lab note: assign the record to one of active, inactive

For orientation, consider the following solved cases.
1. c1ccc(-c2cc(-c3cc(-c4ccccn4)[nH]n3)n[nH]2)nc1
inactive
2. O=c1c2cn[nH]c2nc2scc(-c3ccc(Cl)cc3)n12
inactive
3. COc1ccc(N2C(=O)C3c4[nH]c5ccccc5c4C4CCCCCCCC4C3C2=O)cc1 (stereo unspecified)
inactive
4. CC(=O)Oc1cc2c[n+](C)c3c4cc(OC(C)=O)c(OC(C)=O)cc4ccc3c2cc1OC(C)=O
active
5. O=C(NCCCl)Nc1cccnc1
active
6. CN(C(=O)c1ccco1)C(=S)N1CCN(c2ccccn2)CC1
inactive
7. O=C(CCc1nnc(S)[nH]1)Nc1cc(Cl)c(Cl)cc1Cl
inactive
8. COc1cc2c(cc1OCCCCOc1cc(-c3ccc(F)cc3)nc(C)n1)N=C[C@@H]1CCCN1C2=O
active
9. COc1cc(C(c2cc(OC)c(OC)c(OC)c2)N2C(=O)CCC2C(=O)O)cc(OC)c1OC (stereo unspecified)
inactive
10. Oc1ccc2c(O)cc(-c3ccccc3)nc2c1
inactive

Here's the next entry for you.
# outcome recorded in this test, key = Nn1c(CCCl)nc2c(Br)cc(Br)cc2c1=O inactive
